Biological target: 5-HT2C (Homo sapiens)
Sequence (P28335 33-458): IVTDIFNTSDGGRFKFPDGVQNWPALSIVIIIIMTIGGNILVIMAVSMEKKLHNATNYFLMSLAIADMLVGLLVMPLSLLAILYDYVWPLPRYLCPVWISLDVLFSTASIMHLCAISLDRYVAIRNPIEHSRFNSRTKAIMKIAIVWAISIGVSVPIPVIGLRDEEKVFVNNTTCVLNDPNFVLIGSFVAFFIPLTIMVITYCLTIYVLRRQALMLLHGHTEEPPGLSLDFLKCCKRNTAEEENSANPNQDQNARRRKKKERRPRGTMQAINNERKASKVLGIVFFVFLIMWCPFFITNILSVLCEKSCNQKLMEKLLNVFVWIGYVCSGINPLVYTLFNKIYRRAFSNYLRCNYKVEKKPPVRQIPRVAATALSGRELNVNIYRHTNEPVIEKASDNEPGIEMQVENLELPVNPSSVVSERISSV
METRIC_NAME: Ki (µM)

| GIVEN_SMILES | UOM | ASSAY_VALUE |
| --- | --- | --- |
| CCCCCn1cc(C(=O)Cc2ccccc2)c2ccccc21 | µM | 4.82 |

Data origin, for the record: paper PMC5028280
